- target-entity: T1, human serum albumin (human, UniProt P02768 25-609)
- T1 construct: Negative control antigen
- T1 sequence (P02768 25-609 limits assumed): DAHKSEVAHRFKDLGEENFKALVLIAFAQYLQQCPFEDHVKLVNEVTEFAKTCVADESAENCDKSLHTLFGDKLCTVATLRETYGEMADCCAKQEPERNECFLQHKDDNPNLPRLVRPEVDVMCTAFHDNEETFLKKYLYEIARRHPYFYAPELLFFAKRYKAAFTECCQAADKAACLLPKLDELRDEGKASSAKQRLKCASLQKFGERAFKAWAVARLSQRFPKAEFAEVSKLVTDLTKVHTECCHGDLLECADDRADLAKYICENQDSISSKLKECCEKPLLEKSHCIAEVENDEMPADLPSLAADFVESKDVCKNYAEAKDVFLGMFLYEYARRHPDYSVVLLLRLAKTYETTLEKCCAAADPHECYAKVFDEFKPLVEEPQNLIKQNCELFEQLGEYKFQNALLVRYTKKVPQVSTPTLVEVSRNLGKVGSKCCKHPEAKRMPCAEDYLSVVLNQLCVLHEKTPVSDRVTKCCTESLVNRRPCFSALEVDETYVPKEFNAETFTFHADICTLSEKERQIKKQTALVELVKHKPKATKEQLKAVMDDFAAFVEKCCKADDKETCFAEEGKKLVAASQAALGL
- assay-procedure: ELISA
endpoint-name: binding result

Worked examples, 4 binders total:
MAb 1807 (antibody, human IgG4, V domains shown, Humanized BD16, human IgG4; also called H1235/L284) VH: QVQLVQSGAEVKKPGSSVKVSCKASGYTFTDYYMDWVRQAPGQGLEWIGRVNPYHGGATYNQKFKGKATITVDKSTSTAYMELSSLRSEDTAVYYCAREENSYDGYYGMDYWGQGTLVTVSS VL: DIVMTQSPLSLPVSPGEPATINCKSSQSLFNSGNQKNYLAWYLQKPGQPPKLLIYGASTRESGVPDRFSGSGSGTDFTLTISSLQAEDVAVYYCQNDHTYPYTFGQGTKLEIK = no binding
MAb 301 (antibody, human IgG1, V domains shown, Chimeric, human IgG1, human kappa constant domain; also called chimeric BD16; H387/L124) VH: EVQLQQSGPELVKPGASVKMSCKASGYTFTDYYMDWVKQSHGESFEWIGRVNPYHGGATYNQKFKGKATLTVDKSSRTAYMELNSLTYEDSAVYYCAREENSYDGYYGMDYWGQGTTVTVSS VL: DIVLTQSPSSLSVSAGEKVTMDCKSSQSLFNSGNQKNYLAWYHQKPGQPPKLLIYGASTRESGVPDRFTGSGSGTDFTLTISSVQAEDLAVYYCQNDHTYPYTFGGGTKLEIK = no binding
MAb 1656 (antibody, human IgG1, V domains shown, Humanized BD16, fully human frameworks, human IgG1; also called H1651/L284) VH: QVQLVQSGAEVKKPGSSVKVSCKASGYTFTDYYMDWVRQAPGQGLEWMGRVNPYHGGATYNQKFKGRVTITADKSTSTAYMELSSLRSEDTAVYYCAREENSYDGYYGMDYWGQGTLVTVSS VL: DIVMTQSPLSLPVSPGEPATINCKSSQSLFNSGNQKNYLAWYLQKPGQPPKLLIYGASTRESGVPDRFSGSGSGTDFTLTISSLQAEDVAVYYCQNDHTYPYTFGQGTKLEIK = no binding
MAb 657 (antibody, human IgG1, V domains shown, Humanized BD16, human IgG1; also called H1235/L284) VH: QVQLVQSGAEVKKPGSSVKVSCKASGYTFTDYYMDWVRQAPGQGLEWIGRVNPYHGGATYNQKFKGKATITVDKSTSTAYMELSSLRSEDTAVYYCAREENSYDGYYGMDYWGQGTLVTVSS VL: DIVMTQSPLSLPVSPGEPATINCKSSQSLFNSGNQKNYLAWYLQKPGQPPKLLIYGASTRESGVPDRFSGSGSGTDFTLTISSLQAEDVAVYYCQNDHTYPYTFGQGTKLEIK = no binding

Q. Look up binding result: MAb 1808 (antibody, human IgG4, V domains shown, Humanized BD16, fully human frameworks, human IgG4; also called H1651/L284) VH: QVQLVQSGAEVKKPGSSVKVSCKASGYTFTDYYMDWVRQAPGQGLEWMGRVNPYHGGATYNQKFKGRVTITADKSTSTAYMELSSLRSEDTAVYYCAREENSYDGYYGMDYWGQGTLVTVSS VL: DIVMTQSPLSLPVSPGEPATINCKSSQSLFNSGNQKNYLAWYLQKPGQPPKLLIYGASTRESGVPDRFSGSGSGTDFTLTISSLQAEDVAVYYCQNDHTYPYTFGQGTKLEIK
A. no binding
